All values here come from the METLIN SMRT retention time set (Domingo-Almenara et al. 2019).

# procedureText: gradient 5% acetonitrile 3 min, to 50% in 2 min, to 85% in 15 min, held 3 min, 100 µL/min
# measurementSetup: column: Zorbax Extend-C18 2.1 x 50 mm; eluents: water / acetonitrile, 0.1% formic acid

compound	RP-LC retention time
O=S(=O)(c1cc(-c2nnc(C3CCC3)o2)co1)N1CCN(c2cccc(Cl)c2)CC1	1120 s
CCOC(=O)C1CCCN(c2ncc(S(=O)(=O)c3ccc(C)cc3)c(N)n2)C1 (stereo not given)	983 s
CN1C(=O)c2cc(S(=O)(=O)Nc3cccc(F)c3)ccc2Oc2cccnc21	879 s
CCN(CC)CCN(CC(=O)N1CCNCC1)S(=O)(=O)c1ccc(C)c(C)c1	576 s
CCc1nnc2ccc(-c3noc(-c4cccc(F)c4)n3)cn12	936 s
O=C(NC1CCCCC1)C1CCN(Cc2cc3ccccc3n2Cc2ccccc2Cl)CC1	847 s
O=C(O)c1ccccc1N1C(=O)C2C3C=CC(C3)C2C1=O (stereo not given)	621 s
Cc1cc(CNC(=O)NC(C)(C)C)on1	636 s
CCCSCCCNc1nc(-c2nnc(-c3cccc(C)c3)o2)nc2ccccc12	1190 s
COc1ccc(S(=O)(=O)N2CCOC2CNC(=O)C(=O)NCc2ccccn2)cc1C (stereo not given)	603 s
